# Tested on: NCI/ADR-RES ovarian
# Protocol description: NCI tumour cell line growth inhibition, 48 h
Reported TGI values follow for various compounds
Measured attribute: TGI

>>> observed_value("Cn1c(/C(C#N)=C/c2ccc3ccccc3c2)cc2ccccc21")
"> 100 µM"
>>> observed_value("COc1ccc(C#CC(=O)O)c(OC)c1")
"> 100 µM"
>>> observed_value("CN(C)c1nc(=NCc2ccccc2)ss1")
"> 10 µM"
>>> observed_value("COc1ccc2nc3cc(Cl)ccc3c(NCCCNCCCNc3c4ccc(Cl)cc4nc4ccc(OC)cc34)c2c1")
"> 22.8 µM"

----------
# System: HS 578T breast
# Protocol description: NCI tumour cell line growth inhibition, 48 h
Reported TGI values follow for various compounds
Measured attribute: TGI

>>> observed_value("CC1CCCc2c1nn(C(=O)/C=C(\\N)c1ccccc1)c2N (stereo not drawn)")
"> 100 µM"
>>> observed_value("CN(C)c1nc(=NCc2ccccc2)ss1")
"> 10 µM"
>>> observed_value("COc1ccc(C#CC(=O)O)c(OC)c1")
"> 100 µM"
